test system: E. cloacae 293HT6 (Class C); test: MIC, micro-dilution in liquid medium, β-lactamine with product at 5 mg/l; assay type: cell-based; settings: compound at 5 mg/l; Trial 9, 293HT6 E. cloacae Class C; 24 hours at 37° C.
Provide the reported MIC of Cefotaxime in combination with the compound of each item.

Recorded MIC of Cefotaxime in combination with the compound (molecule O=C(NCc1ccccn1)[C@H]1CC[C@@H]2CN1C(=O)N2OS(=O)(=O)[O-].[Na+] (relative stereo) ): 0.6 µg/mL

Recorded MIC of Cefotaxime in combination with the compound (molecule O=C(NCCc1ccccn1)[C@H]1CC[C@@H]2CN1C(=O)N2OS(=O)(=O)[O-].[Na+] (relative stereo) ): 20 µg/mL

Recorded MIC of Cefotaxime in combination with the compound (molecule O=C(NCCc1ccncc1)[C@H]1CC[C@@H]2CN1C(=O)N2OS(=O)(=O)[O-].[Na+] (relative stereo) ): >40 µg/mL

Recorded MIC of Cefotaxime in combination with the compound (molecule NC(=O)C(Cc1ccccc1)NC(=O)C1CCC2CN1C(=O)N2OS(=O)(=O)O (stereo not drawn) ): >40 µg/mL

Recorded MIC of Cefotaxime in combination with the compound (molecule O=C(NCc1cccnc1)C1CCC2CN1C(=O)N2OS(=O)(=O)O (stereo not drawn) ): 0.08 µg/mL

Recorded MIC of Cefotaxime in combination with the compound (molecule NC(=O)c1cccc(NC(=O)[C@H]2CC[C@@H]3CN2C(=O)N3OS(=O)(=O)[O-])c1.[Na+] (relative stereo) ): 1.2 µg/mL

---

biological target: β-lactamase TEM1 (Escherichia coli); construct: The β-lactamases are isolated from bacterial strains which are resistant to penicillins and cephalosporins; endogenous in cells; host or cells: E. coli 250HT21 (natural producer; French-press lysate, 100,000 g supernatant); test: Inhibition of isolated β-lactamase Tem-1 (Nitrocefin hydrolysis); type: biochemical, E.coli 250HT21; conditions: 100 μM Nitrocefin, 50 mM sodium phosphate buffer pH7.0, 37° C.
Sequence (P62593 24-286 limits assumed): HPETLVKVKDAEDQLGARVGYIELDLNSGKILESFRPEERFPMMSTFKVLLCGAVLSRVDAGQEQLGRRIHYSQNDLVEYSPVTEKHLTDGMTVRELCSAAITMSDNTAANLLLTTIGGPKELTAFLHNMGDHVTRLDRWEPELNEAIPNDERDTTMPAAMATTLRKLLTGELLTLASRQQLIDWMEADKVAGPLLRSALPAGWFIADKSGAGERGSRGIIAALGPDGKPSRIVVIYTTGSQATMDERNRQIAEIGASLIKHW
resultType: IC50

Recorded IC50 (compound O=C(OCc1ccccc1)[C@H]1C[C@@H]2CN1C(=O)N2S(=O)(=O)c1ccccc1 (relative stereo) ): 1400 nM

Recorded IC50 (compound O=C(NCCc1cccnc1)[C@H]1CC[C@@H]2CN1C(=O)N2OS(=O)(=O)[O-].[Na+] (relative stereo) ): 23 nM

Recorded IC50 (compound O=C(OCc1ccccc1)C1CCC2CN1C(=O)N2OS(=O)(=O)O (centres unmarked) [Example 28b] ): 9.5 nM

Recorded IC50 (compound Cc1ccc(S(=O)(=O)ON2C(=O)N3CCCC2C3)cc1 (centres unmarked) [Example 19e] ): 11 nM

Recorded IC50 (compound O=C1N2CCCC(C2)N1OS(=O)(=O)O (centres unmarked) ): 3100 nM

Recorded IC50 (compound O=C(c1ccccc1)N1C(=O)N2CCC1C2 (centres unmarked) ): 1010 nM

Recorded IC50 (compound O=C(NCCc1ccccn1)[C@H]1CC[C@@H]2CN1C(=O)N2OS(=O)(=O)[O-].[Na+] (relative stereo) ): 35 nM

Recorded IC50 (compound O=C(OCCc1ccccn1)[C@H]1CC[C@@H]2CN1C(=O)N2OS(=O)(=O)[O-].[Na+] (relative stereo) ): 18 nM

Recorded IC50 (compound NC(=O)CNC(=O)C1CCC2CN1C(=O)N2OS(=O)(=O)O (centres unmarked) ): 12 nM

Recorded IC50 (compound N#CC[C@@H]1CCN2C[C@H]1OC2=O (relative stereo) ): 2710 nM

Recorded IC50 (compound O=C(O)C[C@@H]1CCN2C[C@@H]1OC2=O (relative stereo) ): 6730 nM

Recorded IC50 (compound NC(=O)C(Cc1ccccc1)NC(=O)C1CCC2CN1C(=O)N2OS(=O)(=O)O (centres unmarked) ): 59 nM

Recorded IC50 (compound O=C(c1ccccc1)N1C(=O)N2CC1CCC2CO (centres unmarked) [Example 29f] ): 5200 nM

Recorded IC50 (compound O=C(NCc1ccccc1)[C@@H]1CC[C@@H]2CN1C(=O)N2C(=O)c1ccccc1 (relative stereo) [Example 29d] ): 9500 nM
